test system: PC-3 prostate; assay: NCI tumour cell line growth inhibition, 48 h
value_kind: TGI

Recorded TGI of "COc1cc(C(=O)O)ccc1NC(=O)[C@@H]1N[C@@H](CC(C)(C)C)[C@](C#N)(c2ccc(Cl)cc2F)[C@H]1c1cccc(Cl)c1F" , please.
> 42.6 µM

Recorded TGI of "Cc1nc2c(n1CCCl)C(=O)c1ccccc1C2=O" , please.
46.1 µM

Recorded TGI of "C[C@]12CC[C@@H]3c4ccc(OCC(=O)O)cc4CC[C@H]3[C@@H]1CCC2=O" , please.
> 100 µM

Recorded TGI of "Cc1cccc(Oc2ccc(Nc3ncnc4ccc(NC(=O)CN5CCN(C)CC5)cc34)cc2Cl)c1" , please.
3.52 µM

Recorded TGI of CNC(=O)C(C)NC(=O)C(Cc1ccccc1)NC(=O)OC(C)(C)C (stereo not given) , please.
> 100 µM

====

system: SNB-75 CNS; test: NCI tumour cell line growth inhibition, 48 h
value_kind: TGI (µM)
Give the value in µM but do not write µM after it.

Fill in the recorded TGI for this compound, with SNB-75 CNS as test system: c1ccc2c(OCC3CO3)ccc(OCC3CO3)c2c1 (stereo not given)
28.4

Fill in the recorded TGI for this compound, with SNB-75 CNS as test system: "C=C(CO)[C@H]1CC/C(C)=C/CC/C(C)=C/C/C=C(\C)[C@H](O)C1"
78.9

Fill in the recorded TGI for this compound, with SNB-75 CNS as test system: O=C(/C=C/C12c3ccccc3C(c3ccccc31)C1C(=O)NC(=O)C12)c1ccco1 (stereo not given)
12.2

====

system: SK-MEL-28 melanoma; assay: NCI tumour cell line growth inhibition, 48 h; in the data active = GI50 below about 0.43 µM; inactive = the rest
*1 amine or outer side, *2 acyl side, *3 side chain or, on linkers, in order; H or OH if unused. Where a SMILES comes first, the peptide text is derived from it. CO = O=C([*:1])[*:2]
Permitted responses: Yes (active), No (inactive)

Record lookup: outcome of this test for "COc1cc(/C=C/C(=O)CC(=O)/C=C/c2ccc(OC(=O)CCNC34CC5CC(CC(C5)C3)C4)c(OC)c2)ccc1OC(=O)CCNC12CC3CC(CC(C3)C1)C2" ?
No

Record lookup: outcome of this test for CCOC(=O)c1ccc(C(O)CC(=O)OC(C)(C)C)[nH]1 (configuration not stated) ?
No

Record lookup: outcome of this test for "O=c1[nH]cnc2c1nnn2[C@@H]1O[C@H](CO)[C@@H](O)[C@H]1O" ?
No

Record lookup: outcome of this test for CC(C)C(NC(=O)C(CCCN=C(N)N)NC(=O)NC(Cc1ccccc1)C(=O)O)C(=O)NC(C=O)CCCN=C(N)N (stereo not drawn) ({Phe-CO}-Arg-Val-Arg-aldehyde; configuration not given here) ?
No

Record lookup: outcome of this test for "CCC[CH2][Sn]([CH2]CCC)([O]C(=O)c1cccc(F)c1F)[O][Sn]([CH2]CCC)([CH2]CCC)[O]C(=O)c1cccc(F)c1F" ?
Yes

Record lookup: outcome of this test for "C=C1C(=O)O[C@H]2[C@H]1CC/C(COC(=O)N[C@@H](Cc1c[nH]c3ccccc13)C(=O)OC)=C\CC[C@@]1(C)O[C@@H]21" ?
No

Record lookup: outcome of this test for "N#Cc1c(N)nc(N2CCOCC2)c(C#N)c1-c1cccc(O)c1" ?
No

====

tested on: OVCAR-5 ovarian; assay: NCI tumour cell line growth inhibition, 48 h
value_kind: TGI (µM)
Give the value in µM but do not write µM after it.

Recorded TGI of "COc1cc(C(=O)O)ccc1NC(=O)[C@@H]1N[C@@H](CC(C)(C)C)[C@](C#N)(c2ccc(Cl)cc2F)[C@H]1c1cccc(Cl)c1F" , please.
24.9

Recorded TGI of "CCN(CC)CCCN1C(=O)c2c(c(C)c3c(oc4cc(O)ccc43)c2C)C1=O" , please.
3.22

Recorded TGI of "C=C1C(=O)O[C@H]2[C@H]1CC/C(Cn1cc(Cn3ccc4cc(Cl)ccc43)nn1)=C\CC[C@@]1(C)O[C@@H]21" , please.
3.54

Recorded TGI of "O=C(CSc1nc2sc3c(c2c(=O)n1-c1ccccc1)CCCCC3)N/N=C/c1ccc(F)cc1" , please.
20.6

Recorded TGI of "Cc1cccc(Oc2ccc(Nc3ncnc4ccc(NC(=O)CN5CCN(C)CC5)cc34)cc2Cl)c1" , please.
3.2

====

tested on: HT29 colon; experiment: NCI tumour cell line growth inhibition, 48 h
value_kind: GI50

Fill in the recorded GI50 for this compound, with HT29 colon as test system: "Cc1cc(S(=O)(=O)/N=C(\N)n2nc(C)c(C)c2C)c(SCc2ccccc2)cc1Cl"
> 100000 nM

Fill in the recorded GI50 for this compound, with HT29 colon as test system: "CCC[C@H](Nc1nc(-c2ccc(NC(=O)NCC)c(OC)c2)ncc1C)c1cccnc1"
36.1 nM

Fill in the recorded GI50 for this compound, with HT29 colon as test system: O=C1CC(N2C(=O)/C(=C/C(Cl)=C\c3ccc([N+](=O)[O-])cc3)SC2=S)C(=O)N1c1ccc(Cl)cc1 (centres undefined)
632 nM

Fill in the recorded GI50 for this compound, with HT29 colon as test system: "CC1(C)OC(=O)C=C(O)O1.CC1(C)OC(=O)C=C(O)O1.CCO.Oc1ccc2c(c1)CCC2.[Ti]"
> 100000 nM

====

Exercise: for every item that follows, state its recorded TGI.
tested on: KM12 colon; experiment: NCI tumour cell line growth inhibition, 48 h

Recorded TGI of "O=C(Nc1ccc(N=Nc2ccccc2)cc1)Sc1ccccc1C(=O)O" , please.
> 100 µM

Recorded TGI of "CCC[C@H](Nc1nc(-c2ccc(NC(=O)NCC)c(OC)c2)ncc1C)c1cccnc1" , please.
0.225 µM

Recorded TGI of "COc1ccc(OC)c2sc(N3C(=O)/C(=C/c4ccccc4S)N=C3c3ccccc3)nc12" , please.
> 100 µM

Recorded TGI of C/C=C/C/C=C/CCC(=O)C1OC1C(N)=O (configuration not stated) , please.
29.5 µM

Recorded TGI of "CCN(CC)/C(=C\Cl)Nc1ccccn1" , please.
> 100 µM

Recorded TGI of "COc1nc(C#CCCCC#N)nc(OC)n1" , please.
36.3 µM

Recorded TGI of C[N+]1(C)C2CCC1CC(OC(=O)C(CO)c1ccccc1)C2 (configuration not stated) , please.
> 100 µM

Recorded TGI of "COc1cc2c3c(n(CCCn4ccnc4)c(=O)c2cc1OC)-c1ccccc1C3=O" , please.
5.03 µM

Recorded TGI of BrC12C3C4C5C(C(C43)C13OCCO3)C52 (configuration not stated) , please.
> 100 µM

Recorded TGI of "C=CCN1C(=O)N/C(=C\c2ccc(Cl)cc2)C1=O" , please.
> 100 µM

Recorded TGI of "Cc1nc(Nc2ccccc2)sc1C(=O)NNC(N)=O" , please.
> 100 µM

Recorded TGI of "CCOC(=O)Cc1nc2nn(Cc3ccccc3)cc2c(=O)[nH]1" , please.
> 100 µM

Recorded TGI of "CO[C@@]12C[C@@H](CNC(=O)c3cc(Br)c[nH]3)O[C@@H]1NC(=O)N2" , please.
> 100 µM

Recorded TGI of "COc1ccc2c(c1)/C(=C/c1c(-c3ccc(C)cc3)nc3sc(C)cn13)C(=O)N2" , please.
> 100 µM

Recorded TGI of "CCOC(=O)C(=O)Nc1ccc([N+](=O)[O-])cc1C#N" , please.
> 100 µM

Recorded TGI of "CC1=CC[C@@]2(C)[C@@H]([C@@H]1C)[C@H]1CC[C@@H]3[C@@]4(C)CC[C@H](O)C(C)(C)[C@@H]4CC[C@@]3(C)[C@]1(C)C[C@@H]2O" , please.
> 74.8 µM

Recorded TGI of N#CC(c1ccc(Cl)cc1)c1cccc(Cl)n1 (configuration not stated) , please.
> 100 µM

Recorded TGI of "Nc1c(C(=O)Nc2cccc3ccccc23)sc2nc3c(cc12)CCCCC3" , please.
> 50 µM

Recorded TGI of "CO/C=C/c1cc2c(cc1C(OC)OC)OCO2" , please.
> 100 µM

Recorded TGI of COC(=O)CC1CN(C(=O)OCc2ccccc2)C(C)(C)O1 (configuration not stated) , please.
> 100 µM

Recorded TGI of Cc1cc(Cl)ccc1NC(=O)/C(CC(=O)CC(c1ccccc1)c1c(O)c2ccccc2oc1=O)=N\O (configuration not stated) , please.
> 100 µM

Recorded TGI of "Cc1ccc2nc(CN3CCCCC3)cc(=O)n2c1" , please.
> 100 µM

Recorded TGI of "COc1ccc(C(=O)O)c2c(=O)c3ccccc3[nH]c12" , please.
> 100 µM

Recorded TGI of COC(=O)c1cccc(C)c1C1CN=NC12Cc1c(ccc(C)c1C)C2=O (configuration not stated) , please.
> 100 µM

Recorded TGI of "O=c1[nH]c2nccn2c(Cl)c1Br" , please.
> 100 µM

Recorded TGI of "O=C(CSc1nc2sc3c(c2c(=O)n1-c1ccccc1)CCCCC3)N/N=C/c1ccc(F)cc1" , please.
> 100 µM

Recorded TGI of N=C(N)C(N=Nc1ccccc1)C(=N)N (configuration not stated) , please.
> 100 µM

Recorded TGI of "Cn1cc(C(=O)/C(Cl)=C(\Cl)C(=O)O)c2ccccc21" , please.
> 100 µM

Recorded TGI of COc1ccc2c(c1)CC1NC2Cc2ccccc21 (configuration not stated) , please.
> 100 µM

Recorded TGI of "COc1ccc2c(c1)-c1c(c3ccccc3n1CCN1CCCCC1)CC2" , please.
> 56.9 µM

Recorded TGI of "Cc1nc2c(s/c(=N\N)n2-c2ccccc2)c(=O)[nH]1" , please.
> 100 µM

Recorded TGI of "CC(=O)[CH-]C(C)=O.CC(=O)[CH-]C(C)=O.CC(=O)[CH-]C(C)=O.[Cl-].[Hf+4]" , please.
> 100 µM
